// reported pIC50 for each item listed
- systemUnderTest: ALK tyrosine kinase receptor (Homo sapiens, UniProt Q9UM73, L1196M)
- Sequence (Q9UM73 19-1620 L1196M limits assumed): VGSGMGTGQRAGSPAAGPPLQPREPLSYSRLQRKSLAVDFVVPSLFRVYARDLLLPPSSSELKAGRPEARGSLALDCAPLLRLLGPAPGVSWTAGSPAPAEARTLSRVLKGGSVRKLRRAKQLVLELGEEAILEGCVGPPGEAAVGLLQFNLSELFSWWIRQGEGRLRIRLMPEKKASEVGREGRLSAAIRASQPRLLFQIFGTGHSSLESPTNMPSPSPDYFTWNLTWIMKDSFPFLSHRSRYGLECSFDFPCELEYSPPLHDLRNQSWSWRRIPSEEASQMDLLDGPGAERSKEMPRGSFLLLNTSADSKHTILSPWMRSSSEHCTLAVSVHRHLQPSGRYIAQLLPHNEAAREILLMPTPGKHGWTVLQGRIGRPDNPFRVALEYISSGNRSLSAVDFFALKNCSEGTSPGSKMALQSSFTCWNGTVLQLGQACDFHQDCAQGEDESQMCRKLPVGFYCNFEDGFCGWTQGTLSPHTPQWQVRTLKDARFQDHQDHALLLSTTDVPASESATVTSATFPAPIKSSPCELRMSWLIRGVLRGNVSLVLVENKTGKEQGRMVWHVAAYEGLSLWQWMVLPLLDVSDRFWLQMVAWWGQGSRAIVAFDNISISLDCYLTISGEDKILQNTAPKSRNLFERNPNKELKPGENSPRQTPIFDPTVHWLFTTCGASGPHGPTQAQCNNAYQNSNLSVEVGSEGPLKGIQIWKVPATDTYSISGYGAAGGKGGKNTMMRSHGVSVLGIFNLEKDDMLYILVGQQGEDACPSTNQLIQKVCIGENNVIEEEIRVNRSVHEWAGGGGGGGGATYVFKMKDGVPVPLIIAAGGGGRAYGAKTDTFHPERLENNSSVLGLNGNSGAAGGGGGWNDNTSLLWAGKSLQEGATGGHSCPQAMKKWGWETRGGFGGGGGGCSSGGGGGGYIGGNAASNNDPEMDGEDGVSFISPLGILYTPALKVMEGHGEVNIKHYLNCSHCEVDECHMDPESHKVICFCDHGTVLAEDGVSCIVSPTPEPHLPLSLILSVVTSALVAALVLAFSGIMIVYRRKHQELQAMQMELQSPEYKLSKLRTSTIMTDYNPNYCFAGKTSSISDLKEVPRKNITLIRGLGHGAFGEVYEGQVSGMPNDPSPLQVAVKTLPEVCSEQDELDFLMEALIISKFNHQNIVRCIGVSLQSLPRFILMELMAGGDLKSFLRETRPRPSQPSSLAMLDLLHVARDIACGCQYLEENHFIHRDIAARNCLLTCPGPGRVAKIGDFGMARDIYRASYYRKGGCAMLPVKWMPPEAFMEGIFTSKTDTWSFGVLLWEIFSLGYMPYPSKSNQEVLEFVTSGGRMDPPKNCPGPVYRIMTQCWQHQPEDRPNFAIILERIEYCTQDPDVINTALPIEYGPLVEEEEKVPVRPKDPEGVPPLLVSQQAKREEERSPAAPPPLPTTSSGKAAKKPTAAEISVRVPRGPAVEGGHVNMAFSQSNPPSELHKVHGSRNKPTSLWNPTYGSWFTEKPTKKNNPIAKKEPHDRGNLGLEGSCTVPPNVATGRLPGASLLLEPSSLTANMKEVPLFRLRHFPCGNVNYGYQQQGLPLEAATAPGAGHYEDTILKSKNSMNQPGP
- protocolDetails: Inhibition of ALK L1196M mutant (unknown origin)
pIC50 is defined as minus the log10 of a concentration measured in mol/L.

Sample `O=C(Nc1cccc(-n2cc(CNc3ccc(N4CCC(O)CC4)c(C(=O)N4CCCC4)c3)nn2)c1)c1cc(F)cc(F)c1` — what was its pIC50?
8.17

Can you share its pIC50? I mean this molecule: `O=C(Nc1cccc(-n2cc(CNc3ccc(N4CC(O)C4)c(C(=O)N4CCCCC4)c3)nn2)c1)c1cc(F)cc(F)c1`
7.89

Tell me the measured pIC50 of `O=C(Nc1cccc(-n2cc(CNc3ccc(N4CCC(O)CC4)c(C(=O)N4CCCCC4)c3)nn2)c1)c1cc(F)cc(F)c1` , please.
7.75

----------
Endpoint: pIC50. System: ALK tyrosine kinase receptor (Homo sapiens). Items follow.
Remember, pIC50 is on a log scale: it is -log10 of the molar concentration.

- lineNotation: "CNCc1cn(-c2cccc(NC(=O)c3cc(F)cc(F)c3)c2)nn1"
  pIC50: 6.57

Given the molecule `O=C(Nc1cccc(-n2cc(CNc3ccc(N4CC(O)C4)c(C(=O)N4CCCCC4)c3)nn2)c1)c1cc(F)cc(F)c1` , what is its reported pIC50?
8.24

----------
- systemUnderTest: Epidermal growth factor receptor (Homo sapiens)
- Sequence (P00533 whole entry): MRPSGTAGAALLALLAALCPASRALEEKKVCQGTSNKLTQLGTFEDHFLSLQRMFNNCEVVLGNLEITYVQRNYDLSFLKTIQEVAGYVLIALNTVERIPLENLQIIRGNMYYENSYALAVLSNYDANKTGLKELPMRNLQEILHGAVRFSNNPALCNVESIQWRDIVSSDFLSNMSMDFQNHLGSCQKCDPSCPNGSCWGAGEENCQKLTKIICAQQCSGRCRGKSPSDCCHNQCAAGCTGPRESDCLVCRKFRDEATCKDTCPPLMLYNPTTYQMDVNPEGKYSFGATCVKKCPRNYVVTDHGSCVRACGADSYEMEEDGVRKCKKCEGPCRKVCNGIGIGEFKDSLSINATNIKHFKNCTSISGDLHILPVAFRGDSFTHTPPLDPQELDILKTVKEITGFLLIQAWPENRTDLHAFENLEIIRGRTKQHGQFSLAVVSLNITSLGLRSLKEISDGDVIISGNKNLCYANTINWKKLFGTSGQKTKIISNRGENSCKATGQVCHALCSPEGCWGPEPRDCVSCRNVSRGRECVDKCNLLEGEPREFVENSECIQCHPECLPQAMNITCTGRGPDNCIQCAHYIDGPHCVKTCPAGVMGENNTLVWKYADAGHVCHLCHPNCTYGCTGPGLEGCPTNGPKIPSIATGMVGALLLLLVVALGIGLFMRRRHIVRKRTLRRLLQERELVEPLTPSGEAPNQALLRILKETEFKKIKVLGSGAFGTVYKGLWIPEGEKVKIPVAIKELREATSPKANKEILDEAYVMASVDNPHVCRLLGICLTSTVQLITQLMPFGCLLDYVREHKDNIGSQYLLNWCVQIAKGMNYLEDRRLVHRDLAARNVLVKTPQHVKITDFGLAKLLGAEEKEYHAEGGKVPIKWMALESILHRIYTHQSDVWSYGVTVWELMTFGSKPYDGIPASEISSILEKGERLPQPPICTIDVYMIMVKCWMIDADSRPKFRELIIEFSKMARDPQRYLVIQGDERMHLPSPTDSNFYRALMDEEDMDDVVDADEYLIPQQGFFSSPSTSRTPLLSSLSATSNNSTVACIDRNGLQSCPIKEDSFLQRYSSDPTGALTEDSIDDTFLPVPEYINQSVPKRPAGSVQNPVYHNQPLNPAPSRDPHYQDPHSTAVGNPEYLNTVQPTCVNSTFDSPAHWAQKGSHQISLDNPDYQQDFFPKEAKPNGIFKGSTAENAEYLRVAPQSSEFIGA
- protocolDetails: Inhibition of EGFR (unknown origin)
valueKind: IC50

What value of measured IC50 is listed for `O=C(Nc1cccc(-n2cc(CNc3ccc(N4CCC(O)CC4)c(C(=O)N4CCCC4)c3)nn2)c1)c1cc(F)cc(F)c1` ?
> 1000 nM

----------
- Tested on: KARPAS-299
- protocolDetails: Antiproliferative activity against human KARPAS-299 cells by MTT assay
valueKind: pIC50
Worth noting: pIC50 values are minus log10 of concentrations stated in mol/L.

- lineNotation: "CN(C)C(=O)c1cc(NCc2cn(-c3cccc(NC(=O)c4cc(F)cc(F)c4)c3)nn2)ccc1N1CCC(O)CC1"
  pIC50: 7.21
- lineNotation: "O=C(Nc1cccc(-n2cc(CNc3ccc(N4CCCCC4)c(C(=O)N4CCOCC4)c3)nn2)c1)c1cc(F)cc(F)c1"
  pIC50: 5.72

Tell me the measured pIC50 of `CN(C)C(=O)c1cc(NCc2cn(-c3cccc(NC(=O)c4cc(F)cc(F)c4)c3)nn2)ccc1N1CCCCC1` , please.
6.80

Record request: pIC50 value, item `CN(C)c1ccc(NCc2cn(-c3cccc(NC(=O)c4cc(F)cc(F)c4)c3)nn2)cc1C(=O)N1CCCC1`
6.29

Which pIC50 is reported for this compound? `O=C(Nc1cccc(-n2cc(CNc3ccc(NCCO)c(C(=O)N4CCOCC4)c3)nn2)c1)c1cc(F)cc(F)c1`
5.81

Quick check: pIC50 of `CN1CCN(c2ccc(NCc3cn(-c4cccc(NC(=O)c5cc(F)cc(F)c5)c4)nn3)cc2C(=O)N(C)C)CC1` ?
7.26

----------
- Tested on: KARPAS-299
- protocolDetails: Antiproliferative activity against human KARPAS-299 cells by MTT assay
// pIC50 lookup, one value per entry
Bear in mind: pIC50 is minus log10 of a mol/L concentration; give just that figure.

- lineNotation: "O=C(Nc1cccc(-n2cc(CNc3ccc(N4CCCCC4)c(C(=O)N4CCCC4)c3)nn2)c1)c1cc(F)cc(F)c1"
  pIC50: 6.63

So what does the record say about pIC50 for `O=C(Nc1cccc(-n2cc(CNc3ccc(N4CCC(O)CC4)c(C(=O)N4CCCCC4)c3)nn2)c1)c1cc(F)cc(F)c1` ?
7.24

Using the record for `CC1CCN(c2ccc(NCc3cn(-c4cccc(NC(=O)c5cc(F)cc(F)c5)c4)nn3)cc2C(=O)N2CCCCC2)CC1` , report its pIC50.
6.62

Query: pIC50; subject: `CN(C)c1ccc(NCc2cn(-c3cccc(NC(=O)c4cc(F)cc(F)c4)c3)nn2)cc1C(=O)N1CCCCC1`
6.23

Recorded pIC50 of `CN(C)C(=O)c1cc(NCc2cn(-c3cccc(NC(=O)c4cc(F)cc(F)c4)c3)nn2)ccc1N(C)C` , please.
6.45

Please look up its pIC50: `O=C(Nc1cccc(-n2cc(CNc3ccc(N4CCCCC4)c(C(=O)N4CCCCC4)c3)nn2)c1)c1cc(F)cc(F)c1`
6.57

What value of pIC50 has been reported for the following compound? `CC1CCN(c2ccc(NCc3cn(-c4cccc(NC(=O)c5cc(F)cc(F)c5)c4)nn3)cc2C(=O)N2CCCC2)CC1`
6.60
